System: DLD1 cells
Test: cells
Type: cell-based
Conditions: Homo sapiens, DLD-1, read-out: IC50 (μM) ± SD (μM), DLD1
RECORDED ENDPOINT: IC50 (µM)
One number for each entry, in µM.

For reference, reported IC50 for CC(=O)OC[C@H]1OC(OC(C)=O)[C@H](n2cc(C(=O)NC3([As](O)O)C=CC=CC3)nn2)[C@@H](OC(C)=O)[C@@H]1OC(C)=O (stereo partly shown) stands at 15

###

System: HCT-116 cells
Experiment: cells
Assay type: cell-based, human
Details: Homo sapiens, HCT-116, read-out: IC50 (μM) ± SD (μM), HCT-116
RECORDED ENDPOINT: IC50

Recorded IC50 for CC(=O)OC[C@H]1OC(OC(C)=O)[C@H](n2cc(C(=O)NC3([As](O)O)C=CC=CC3)nn2)[C@@H](OC(C)=O)[C@@H]1OC(C)=O (stereo partly shown) [Compound 8] on HCT-116 cells was 17.7 µM
